- Tested on: MDA-N
- ASSAY_REMARKS: NCI tumour cell line growth inhibition, 48 h
Examples of compounds with documented TGI follow.
PARAMETER_MEASURED: TGI

1) Cc1cn(C2CC(O)C(COC(=O)NCCC(F)(F)C(F)(F)C(F)(F)C(F)(F)F)O2)c(=O)[nH]c1=O (stereo unspecified): > 100 µM
2) O=S(Nc1ccccc1)c1cccc(Cl)c1 (stereo unspecified): > 100 µM
3) COC(=O)c1sc(=S)sc1SCc1ccc(CSc2sc(=S)sc2C(=O)OC)cc1: > 100 µM
4) Clc1cc(Cl)cc(C=NC23CC4CC(CC(C4)C2)C3)c1: > 10 µM
5) CC(C)(C)c1cc(C2=NNC(c3ccccc3)C2)cc(C(C)(C)C)c1O (stereo unspecified): 28.5 µM
6) CCCN(CCCc1ccccc1)CCc1ccc2[nH]c(=S)[nH]c2c1: 41.7 µM
7) CCOC(=O)Cn1c(=O)c2nc(SC)sc2n(CC)c1=S: > 100 µM
8) N#CCCN(CCCN(CCCN(C(=O)Nc1ccccc1)c1ccccc1)C(=O)Nc1ccccc1)C(=O)Nc1ccccc1: > 100 µM
9) CCOP(=O)(OCC)C(C)(CC)N/C(=N/C(NC(C)=O)(C(F)(F)F)C(F)(F)F)NC1=NC(C(F)(F)F)(C(F)(F)F)N=C(C(F)(F)F)O1 (stereo unspecified): > 100 µM
10) CC(C)OCC1CC(CC(=O)Nc2nncs2)C(=O)O1 (stereo unspecified): > 100 µM
11) COc1cc2ccccc2oc1=O: > 100 µM

====

- Tested on: SK-MEL-5 melanoma
- ASSAY_REMARKS: NCI tumour cell line growth inhibition, 48 h
Examples of molecules with documented TGI follow.
PARAMETER_MEASURED: TGI (µM)

1) CC(=O)C1=C(C)N(c2ccc(C)cc2)C2(O)C=CC(=O)C3C(=O)N(c4ccccc4)C(=O)C132 (centres undefined): 34
2) CC1OC(n2c3ccccc3c3c4c(c5c6ccccc6[nH]c5c32)C(=O)N(CCN[C@@H]2CCC[C@H]2N)C4=O)CC(O)C1O (some centres undefined): 3.68
3) COc1nc(C#CC2(O)CCCCC2)nc(OC)n1: 20.2
4) COc1cccc2c1Cc1cc(-c3ccccc3)[n+](C)n1-2: 21.7
5) COc1ccc2c(c1)[nH]c1c(/C=C/c3ccccc3)nccc12: 36.6
6) CCC(C)[C@H]1O[C@]2(C=C[C@@H]1C)C[C@@H]1C[C@@H](C/C=C(\C)[C@@H](OC3C[C@H](OC)C(O[C@H]4C[C@H](OC)[C@@H](O)[C@H](C)O4)[C@H](C)O3)[C@@H](C)/C=C/C=C3\CO[C@@H]4[C@H](O)C(C)=C[C@@H](C(=O)O1)[C@]34O)O2 (some centres undefined): 2.28

====

Examples of compounds with documented TGI follow.
- Tested on: MDA-MB-231 breast
- ASSAY_REMARKS: NCI tumour cell line growth inhibition, 48 h
PARAMETER_MEASURED: TGI (µM)

1) Cc1ccc(N(C(=O)Nc2ccccc2)C2=NCC(C)S2)cc1C (stereo unspecified): 45
2) Clc1cc2c(cc1Cl)CC(NCCN1CCCC1)CC2 (stereo unspecified): 30.3
3) CCCCC[C@H]1C/C=C2/C(=O)C=C[C@@H]2C/C=C\CCCC(=O)O[C@@H](CCCCC)C/C=C2/C(=O)C=C[C@@H]2C/C=C\CCCC(=O)O1: 2.17
4) O=S(=O)(Nc1ccc(Br)c(Cl)c1)c1ccc(-c2cnc(C3CC3)o2)cc1: 16.4
5) NCCSC(c1ccccc1)c1ccccc1: 37.3
6) O=S(=O)(O)C(=Nc1cccc(Cc2ccccc2)c1)Nc1cccc(Cc2ccccc2)c1: 38.2
7) O=C(Nc1cccc(-n2cc(-c3ccncc3)c(-c3ccc(Cl)c(O)c3)n2)c1)c1ccc(N2CCOCC2)c(C(F)(F)F)c1: 15.6

These measurements were taken from PubChem BioAssay (NCI).
